# Study target: SCD5 (Homo sapiens (Human), UniProt Q86SK9)
# Sequence (Q86SK9 whole entry): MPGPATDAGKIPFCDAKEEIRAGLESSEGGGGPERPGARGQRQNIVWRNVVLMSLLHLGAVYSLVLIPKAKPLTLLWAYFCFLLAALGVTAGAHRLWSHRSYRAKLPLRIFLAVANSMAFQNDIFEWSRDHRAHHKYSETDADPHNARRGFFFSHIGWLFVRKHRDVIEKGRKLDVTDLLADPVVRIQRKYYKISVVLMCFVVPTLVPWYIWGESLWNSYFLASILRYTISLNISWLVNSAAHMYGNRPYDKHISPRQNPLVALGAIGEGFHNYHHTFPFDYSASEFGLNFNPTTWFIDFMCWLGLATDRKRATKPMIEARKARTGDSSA
# Assay overview: Growth inhibition of yeast strain expressing human SCD5 as the sole desaturase
# Type: cell-based
Measured property: IC50 (nM)
Answer format: numeric, nM implied, no suffix.

// Cn1nc(NC(=O)N2CCC(Cc3cc(F)cc(F)c3)CC2)ccc1=O [Compound 51] : IC50 value = 60

###

# Study target: UniProtKB O00767
# Assay overview: Growth inhibition of yeast strain expressing human SCD1 as the sole desaturase
# Assay type: cell-based
Measured property: pIC50
Please report pIC50 as the negative decimal logarithm of the molar concentration, giving only the number.

// Cn1nc(NC(=O)N2CCC(Cc3cc(F)cc(F)c3)CC2)ccc1=O : pIC50 value = 6.17

###

# Study target: SCD1 (Homo sapiens (Human))
# Sequence (O00767 whole entry): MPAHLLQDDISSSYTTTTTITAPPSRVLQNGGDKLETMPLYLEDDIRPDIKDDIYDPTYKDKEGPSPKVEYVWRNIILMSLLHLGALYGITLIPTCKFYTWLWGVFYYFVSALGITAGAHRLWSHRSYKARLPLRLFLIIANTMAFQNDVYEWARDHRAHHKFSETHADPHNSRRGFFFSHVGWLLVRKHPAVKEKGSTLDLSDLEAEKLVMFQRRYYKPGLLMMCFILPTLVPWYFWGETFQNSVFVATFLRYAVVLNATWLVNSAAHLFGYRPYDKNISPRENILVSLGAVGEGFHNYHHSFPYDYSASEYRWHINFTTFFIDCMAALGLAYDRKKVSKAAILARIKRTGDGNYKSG
# Assay overview: Growth inhibition of yeast strain expressing human SCD1 as the sole desaturase
# Type: cell-based
# Measurement parameters: ole1Δ yeast with human SCD1 plasmid, OD600 growth read at 40 h, top concentration 33.3 μM per method
Measured property: pIC50
Please report pIC50 as the negative decimal logarithm of the molar concentration, giving only the number.

// Cn1cc(NC(=O)N2CCC(Cc3cc(F)cc(F)c3)CC2)ccc1=O : pIC50 value = 4.84

// Cn1nc(NC(=O)N2CCC(Oc3cccc(F)c3Cl)CC2)ccc1=O : pIC50 value = 6.77

// Cn1nc(NC(=O)N2CCC(Oc3cccc(Cl)c3F)CC2)ccc1=O : pIC50 value = 6.04

###

# Study target: SCD5 (Homo sapiens (Human), UniProt Q86SK9)
# Assay overview: Growth inhibition of yeast strain expressing human SCD5 as the sole desaturase
# Assay type: cell-based
# Measurement parameters: ole1Δ yeast with human SCD5 plasmid, OD600 growth read at 40 h, top concentration 33.3 μM per method
I'd appreciate it if you could supply IC50 values for the items below.
Answer format: numeric, nM implied, no suffix.

// Cn1nc(NC(=O)N2CCC(Oc3cccc(F)c3Cl)CC2)ccc1=O [Compound 78] : IC50 value = 10

// Cn1nc(NC(=O)N2CCC(Oc3cccc(Cl)c3F)CC2)ccc1=O [Compound 77] : IC50 value = 740

// Cn1cc(NC(=O)N2CCC(Cc3cc(F)cc(F)c3)CC2)ccc1=O [Compound 9] : IC50 value = 4220
